Ref: ChEMBL document CHEMBL2150899

Test: Drug degradation in DMSO assessed as oxidation
Format: physicochemical
Measurement kind: Drug degradation

Smiles entry: Nc1nc(Cl)c(N)c(Cl)n1
Measurement kind: Drug degradation
Result: Active

Smiles entry: COc1nc(N)nc(OC)c1N
Measurement kind: Drug degradation
Result: Active

Smiles entry: Nc1c[nH]c(=O)nc1N
Measurement kind: Drug degradation
Result: Active
